Consider the following binders; for each one, report its IC50 of neutralisation of SARS-CoV-2 pseudovirus (293T_(ACE2) cells).
Target: SARS-CoV-2 receptor binding domain (RBD) (Severe acute respiratory syndrome …, UniProt P0DTC2)
Test: cell-based or functional assay
Your answer should be a plain number; it is taken to be in µg/mL.

Consider the binder shown here: C118 (antibody, V domains shown) VH: QVQLVESGGGVVQPGRSLRLSCAASGFTFSNYAMHWVRQAPGKGLEWVAVISYDGSNKYYADSVKGRFTISRDNSKNTLYLQMNSLRAEDTAIYYCASGYTGYDYFVRGDYYGLDVWGQGTTVTVSS VL: QPVLTQSPSASASLGASVKLTCTLSSGHSSYAIAWHQQQPEKGPRYLMKLNTDGSHSKGDGIPDRFSGSSSGAERYLTISSLQSEDEADYYCQTWGTGILVFGGGTKLTVL What is its recorded IC50 of neutralisation of SARS-CoV-2 pseudovirus (293T_(ACE2) cells)?
0.104

Entry C128 (antibody, V domains shown) VH: EVQLLESGGGLVQPGGSLRLSCAASGFTFSTYAMSWVRQAPGKGLEWVSTITGSGRDTYYADSVKGRFTISRDNSKNTLFLQLNSLRAEDAAVYSCANHPLASGDDYYHYYMDVWGKGTTVTVSS VL: EIVLTQSPGTLSLSPGERATLSCRASQSVNSRQLAWYQQKPGQAPRLLIYGASSRATGIPERFSGSGSGTDFTLTISRLESEDFAVYHCQQYGSSRALTFGGGTKVEIK please
0.101

Entry C164 (antibody, V domains shown) VH: EVQLVESGGGLVQPGGSLRLSCAASGFSVSTKYMTWVRQAPGKGLEWVSVLYSGGSDYYADSVKGRFTISRDNSKNALYLQMNSLRVEDTGVYYCARDSSEVRDHPGHPGRSVGAFDIWGQGTMVTVSS VL: QSALTQPASVSGSPGQSITISCTGTSNDVGSYTLVSWYQQYPGKAPKLLIFEVTKRSSGISNRFSGSKSGNTASLTISGLQGEDEADYYCCSYAGASTFVFGGGTKLTVL please
0.239

// provenance: paper PMC7263513
